assay: Human HepG2 cell viability assay in 384 well format; type: toxicity, cell-based; design: dose 125 nL, time 70.5 hour; concentration not given beside the values; conditions: HepG2 cells, read-out: Inhibition

{"columns": ["Molecule", "cytotoxicity at 70.5 h, %"],
 "data": [
  ["O=C(CO)N1CCCn2nnc(Cn3cccn3)c2C1", 11.5],
  ["CCC(=O)N1CCCN(C(=O)c2cc(C)cc(Br)c2O)CC1", -1.86],
  ["O[C@H]1CC[C@@H](Cc2cc(-c3ccc(F)cc3)on2)O[C@@H]1CNCC1CC1", -5.85],
  ["CN(C)c1nc(N)nc(CN2CCCC2c2cccs2)n1 (stereo not given)", 0.514],
  ["Cc1ccc(OCC(=O)NS(=O)(=O)c2cccnc2)cc1C", 23.3],
  ["CC(C)N[C@@H]1CO[C@H](CNC(=O)c2cccs2)[C@H]1O", 1.83],
  ["O=C(c1ccco1)N1CCc2ncc(CN3CCOCC3)n2CC1", 18.7],
  ["COCc1noc(C2(c3ccc(F)cc3)CCOCC2)n1", 28.8],
  ["Cc1cccc(CS(=O)(=O)CC(O)Cn2cccn2)c1 (stereo not given)", -4.24],
  ["O=C(NCc1nnc2n1CCCCC2)N1CCc2ccccc2C1", 1.11],
  ["Cc1cccnc1NC(=O)NC(CCO)C(C)(C)C (stereo not given)", -2.8],
  ["Cc1cccc(CN2C[C@@H]3COC[C@]3(CNC(=O)c3ccsc3)C2)n1", -8.41],
  ["CC(C)n1ccnc1Cn1ccc2ncccc2c1=O", -0.693],
  ["Cc1ccc(C2CSCCN2C(=O)c2ccc(C(N)=O)cc2)o1 (stereo not given)", -9.63],
  ["COCCN(Cc1sccc1C)Cc1nccn1CCOC", -4.3],
  ["CCCn1nc2c(cc1=O)CN(CCS(C)(=O)=O)CC2", 9.12],
  ["COc1cnc(N2CCCN(c3ccc(F)cc3)CC2)nc1", 8.19],
  ["CNc1oc(-c2ccc(S(=O)(=O)N(C)C)o2)nc1C#N", 22.7],
  ["CN1CCC(N2C[C@H](O)C[C@H]2c2nc(Cc3ccccc3)no2)CC1", -7.37],
  ["CC(C)Cc1noc(CNc2ccccc2CC(=O)N(C)C)n1", -3.15],
  ["Cc1ccc(NC(=O)NCCCc2n[nH]c(N)c2C#N)cc1", -3.1],
  ["CCn1cnnc1CNS(=O)(=O)N1CCCC1c1ccco1 (stereo not given)", -9.43],
  ["COCCN(CC1CC1)c1nc(CCN)nc2sc(C)c(C)c12", 26.7],
  ["CCCN1CCN(C(=O)c2cc3ccccc3cn2)[C@H]2CS(=O)(=O)C[C@H]21", -12],
  ["N#Cc1cccc(OCCN2CCn3c(nnc3C3CC3)C2)c1", -11],
  ["Cc1nnc(SC2CCN(c3sccc3C#N)C2=O)[nH]1 (stereo not given)", -9.17],
  ["C[C@@H]1CN(C2(C(=O)N3CCNCC3)Cc3ccccc3C2)C[C@H](C)O1", -2.17],
  ["CN(Cc1ccccc1)CC1CC2(CO1)CN(Cc1nccs1)C2 (stereo not given)", -6.93],
  ["CC1=C[C@@H](CN2CCC(CO)CC2)[C@H](C(C)C)C[C@H]1Cc1nnc(C)o1", -1.39],
  ["CC(C)[C@@H]1CN(Cc2ccccc2C#N)C[C@H]1NC(=O)N(C)C", -1.2]
]}
